Source of measurements: patent US20240287044A1

- assay overview: Pharmacokinetics of different salt forms (ICR mice)
- Assay type: in vivo
- experimental setup: ICR, mouse, plasma, po, 75 mg/kg, 75 mg·kg^−1 single gavage, fasted, normal saline, read-out: AUC0-t
Counter-ions that a name gives are not always drawn.

molecule | AUC0-t / µg·h/mL
C=CC(=O)Nc1cc(N2CCN(CC)C3(CC3)C2)ccc1Nc1cc(N(C)C(=O)Nc2c(Cl)c(OC)cc(OC)c2Cl)ncn1 [ethanesulfonate salt] | 9.66

----------
- assay overview: Pharmacokinetics of different salt forms (ICR mice)
- Type: in vivo
- experimental setup: ICR, mouse, plasma, po, 75 mg/kg, 75 mg·kg^−1 single gavage, fasted, normal saline, read-out: Cmax
Where a name gives a salt, the structure may show the parent alone.
readout name: Cmax (ng/mL)

compound | readout number
C=CC(=O)Nc1cc(N2CCN(CC)C3(CC3)C2)ccc1Nc1cc(N(C)C(=O)Nc2c(Cl)c(OC)cc(OC)c2Cl)ncn1 [ethanesulfonate salt] | 4110

----------
- assay overview: Pharmacokinetic study on different salt forms (SD rats)
- Format: in vivo
- experimental setup: SD, rat, plasma, po, 20 mg/kg, 20 mg·kg^−1 single gavage, fasted, 0.5% CMC-Na
readout name: half-life (min)

molecule | units of measure | readout number
C=CC(=O)Nc1cc(N2CCN(CC)C3(CC3)C2)ccc1Nc1cc(N(C)C(=O)Nc2c(Cl)c(OC)cc(OC)c2Cl)ncn1 [Free base] | min | 129
